// Serine/threonine-protein kinase 25 (Homo sapiens) ΔTm records

compound string	ΔTm / °C
O=C1C(Cl)=C(N2C(=O)CCC2=O)C(=O)c2ccccc21	-0.5
Nc1cc2ncnc(Nc3cccc(Br)c3)c2cc1N	2.5
Cc1ccc(NC(=O)c2cccc(N(C)C)c2)cc1NC(=O)c1ccc(O)cc1	-0.3
N#C/C(=C\c1ccc(O)c(O)c1)C(=O)Nc1ccccc1	0.5
Cc1nc2sccn2c(=O)c1CCN1CCC(=C(c2ccccc2)c2ccc(F)cc2)CC1	0.3

---

Target: Serine/threonine-protein kinase 17A (Homo sapiens) (UniProt Q9UEE5)
Sequence (Q9UEE5 whole entry): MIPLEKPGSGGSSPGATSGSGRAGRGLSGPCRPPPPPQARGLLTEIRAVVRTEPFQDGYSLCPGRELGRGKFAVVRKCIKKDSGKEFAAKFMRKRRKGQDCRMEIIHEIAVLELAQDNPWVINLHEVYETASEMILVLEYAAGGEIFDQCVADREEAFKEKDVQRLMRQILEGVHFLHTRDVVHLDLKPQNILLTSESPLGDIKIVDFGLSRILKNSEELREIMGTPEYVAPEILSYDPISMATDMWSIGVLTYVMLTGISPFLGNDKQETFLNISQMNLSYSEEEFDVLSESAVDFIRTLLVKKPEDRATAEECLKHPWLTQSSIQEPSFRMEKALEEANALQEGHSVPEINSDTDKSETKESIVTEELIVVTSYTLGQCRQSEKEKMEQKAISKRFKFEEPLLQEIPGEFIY
readout type: ΔTm (°C)

molecule	readout type	unit abbrev	endpoint value
Cc1c2ccncc2c(C)c2c1[nH]c1ccccc12 [ELLIPTECINE]	ΔTm	°C	0.8
Nc1n[nH]c2nnc(-c3c(-c4ccccc4)nn4ccccc34)cc12	ΔTm	°C	0.8
CC(C)(C)n1nc(-c2cccc3ccccc23)c2c(N)ncnc21	ΔTm	°C	2
CC(C)c1cc(/C=C(\C#N)C(=O)NCCCc2ccccc2)cc(C(C)C)c1O	ΔTm	°C	0.8

---

// Mitogen-activated protein kinase 6 (Homo sapiens) ΔTm records

molecule	ΔTm, °C
COc1cc2ncnc(Nc3cccc(O)c3)c2cc1OC	0.1
CN(C)CCCn1cc(C2=C(c3c[nH]c4ccccc34)C(=O)NC2=O)c2ccccc21	-0.2
COc1cc2c(cc1OC)-c1n[nH]c(Nc3cccc(F)c3)c1C2	-0.3
COc1ccc2c(c1)/C(=C/c1cnc[nH]1)C(=O)N2	0.2
N#CCCc1ccc2c(c1)-c1[nH]c3ccc([N+](=O)[O-])cc3c1CC(=O)N2	1.7
CN(C)c1ccc(CC2C(=O)Nc3ccccc32)cc1 (stereo not drawn)	0.1
C=CNC#N	1
CN(C)C[C@@H]1CCn2cc(c3ccccc32)C2=C(C(=O)NC2=O)c2cn(c3ccccc23)CCO1	0.1
CCCNC(=O)Nc1ccc(Oc2ncnc3cc(OC)c(OC)cc23)cc1Cl	1.2
O=c1ccc2ccc(O)c(O)c2o1	0.2
C/C(O)=C(\C#N)C(=O)Nc1cc(Br)ccc1Br	0.4
Nc1cc2ncnc(Nc3cccc(Br)c3)c2cc1N	0.6
Cc1cc(Nc2nc(-c3ccccc3)nc3ccccc23)n[nH]1	0.2

---

Consider the following compounds and their measured ΔTm readings.
Target: 5'-AMP-activated protein kinase catalytic subunit alpha-2 (Homo sapiens) (UniProt P54646)
Sequence (P54646 whole entry, looked up): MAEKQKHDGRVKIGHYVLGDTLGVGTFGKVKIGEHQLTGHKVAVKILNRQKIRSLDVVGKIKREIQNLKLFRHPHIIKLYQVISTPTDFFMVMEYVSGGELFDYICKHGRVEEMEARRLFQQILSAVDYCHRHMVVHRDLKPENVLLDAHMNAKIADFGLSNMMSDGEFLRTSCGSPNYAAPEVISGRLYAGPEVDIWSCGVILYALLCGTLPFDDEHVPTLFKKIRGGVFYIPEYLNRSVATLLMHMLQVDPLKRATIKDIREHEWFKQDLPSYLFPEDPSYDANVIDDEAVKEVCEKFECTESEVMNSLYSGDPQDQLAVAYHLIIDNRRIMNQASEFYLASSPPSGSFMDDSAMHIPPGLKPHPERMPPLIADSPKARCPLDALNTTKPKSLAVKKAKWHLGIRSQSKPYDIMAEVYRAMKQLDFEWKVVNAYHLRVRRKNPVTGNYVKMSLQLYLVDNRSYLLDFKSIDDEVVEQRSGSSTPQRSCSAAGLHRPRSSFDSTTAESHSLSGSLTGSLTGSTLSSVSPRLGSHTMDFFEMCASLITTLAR

compound string	ΔTm
N#CC(C#N)=Cc1ccc(O)c(O)c1	-0.1 °C
Nc1n[nH]c2nc3ccccc3nc12	-0.1 °C
CCN1/C(=C/C(C)=O)Sc2ccc(OC)cc21	-0.1 °C
Cc1nc2sccn2c(=O)c1CCN1CCC(=C(c2ccccc2)c2ccc(F)cc2)CC1	-0.1 °C
N#CCCc1ccc2c(c1)-c1[nH]c3ccc([N+](=O)[O-])cc3c1CC(=O)N2	1 °C
Clc1ccc(Nc2nnc(Cc3ccncc3)c3ccccc23)cc1	-0.1 °C

---

// Casein kinase I isoform gamma-1 (Homo sapiens) (UniProt Q9HCP0) ΔTm records

compound	tested target	unit abbrev	ΔTm
Cn1cc(C2=C(c3cn(CCCSC(=N)N)c4ccccc34)C(=O)NC2=O)c2ccccc21	Casein kinase I isoform gamma-1 (Homo sapiens) (UniProt Q9HCP0)	°C	0.6
O=C1NC(=O)C(c2cn(CCCn3ccnc3)c3ccccc23)=C1Nc1ccccc1	Casein kinase I isoform gamma-1 (Homo sapiens) (UniProt Q9HCP0)	°C	0.6
COC(=O)[C@]1(O)C[C@@H]2O[C@@]1(C)n1c3ccccc3c3c4c(c5c6ccccc6n2c5c31)C(=O)NC4 (single isomer, unassigned)	Casein kinase I isoform gamma-1 (Homo sapiens) (UniProt Q9HCP0)	°C	0.6
